Assay target: Carboxy-terminal domain RNA polymerase II polypeptide A small phosphatase 1 (Homo sapiens)
Sequence (Q9GZU7 whole entry): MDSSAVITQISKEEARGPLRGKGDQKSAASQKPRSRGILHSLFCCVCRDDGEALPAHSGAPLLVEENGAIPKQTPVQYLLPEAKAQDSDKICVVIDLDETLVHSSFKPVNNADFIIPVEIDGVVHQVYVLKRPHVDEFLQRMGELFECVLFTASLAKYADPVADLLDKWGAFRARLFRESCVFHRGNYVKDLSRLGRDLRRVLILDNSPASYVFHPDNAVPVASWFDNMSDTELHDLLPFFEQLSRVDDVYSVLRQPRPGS
Assay comment: inhibitors of CTDSP1, concentration-response testing, biochemical assay, absorbance-based, actives from ultra-high-throughput screening (AID 540297)
Type: functional
The source made the active and inactive calls. Rule as the data show it: actives have a measured IC50 and inactives only a lower limit.
Measured property: IC50

Cc1ccc(C)c(NC(=O)CN(C)C(=O)c2cccc(-n3cccc3)c2)c1 ... 6.04 µM (active)
CCOC(=O)Cc1csc(SCC(=O)Nc2sc3c(c2C(N)=O)CCC3)n1 ... 4.63 µM (active)
COc1ccc(OC)c(NC(=O)CSc2ncnc3sc(C)cc23)c1 ... 5.46 µM (active)

Q: Which value of IC50 has been reported for "COC(=O)c1c(NC(=O)COC(=O)c2ccc(NC(=O)CC#N)cc2)sc2c1CCCCC2" in the records?
Result: 1.84 µM (active)

Q: Then "Nc1c(C(=O)OCC(=O)Nc2cccc([N+](=O)[O-])c2)[nH]c(=O)[nH]c1=O" ?
Result: 7.55 µM (active)

Q: Then "O=C(Nc1nc2ccsc2c(=O)s1)c1ccc(Cl)cc1" ?
Result: 5.43 µM (active)
